# protocol-notes: Displacement of [3H]-DTG from sigma 2 receptor in Wistar hannover rat liver membrane after 120 mins
# Type: cell membranes
assay-readout: Ki (nM)

Before answering, review these 3 worked examples.
COc1ccc2c(CCCCN3CCC(C)CC3)cccc2c1 : 17.9
CC1CCN(CCCCc2cccc3cc(OCCCCCCN4C(=O)c5ccc(N(C)C)cc5C4=O)ccc23)CC1 : 45.6
COc1ccc2c(c1)CCCC2CCCCN1CCC(C)CC1 (stereo unspecified) : 48.7

[I] CC1CCN(CCCCC2CCCc3cc(OCCCCCCN4C(=O)c5ccc(N(C)C)cc5C4=O)ccc32)CC1 (stereo unspecified)
[II] COc1cccc2c1CCCC2CCC(=O)N1CCN(C2CCCCC2)CC1 (stereo unspecified)
[III] COc1cc2c(cc1OC)CN(CCCN1CCc3c(OC)cccc3C1=O)CC2
INPUT: Put the compounds in ascending order of Ki. Answer by naming the labels in the order asked.
OUTPUT: III, I, II
